- Measurement target: GABA-A receptor; alpha-2/beta-3/gamma-2 (Homo sapiens, UniProt P18507+P28472+P47869)
- Sequence (P18507 whole entry): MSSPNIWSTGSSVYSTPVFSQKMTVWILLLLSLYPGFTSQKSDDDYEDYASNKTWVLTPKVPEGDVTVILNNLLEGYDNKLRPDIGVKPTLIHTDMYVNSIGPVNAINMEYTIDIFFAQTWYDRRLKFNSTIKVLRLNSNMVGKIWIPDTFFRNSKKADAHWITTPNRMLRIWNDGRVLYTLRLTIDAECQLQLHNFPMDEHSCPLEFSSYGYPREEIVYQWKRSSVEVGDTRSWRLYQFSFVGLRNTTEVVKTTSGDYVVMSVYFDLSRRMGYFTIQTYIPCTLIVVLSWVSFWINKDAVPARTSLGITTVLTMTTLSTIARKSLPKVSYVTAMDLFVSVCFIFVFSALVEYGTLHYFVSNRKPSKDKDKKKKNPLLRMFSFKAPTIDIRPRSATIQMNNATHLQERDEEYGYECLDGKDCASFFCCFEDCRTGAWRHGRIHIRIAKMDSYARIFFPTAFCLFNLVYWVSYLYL
- Sequence (P28472 whole entry): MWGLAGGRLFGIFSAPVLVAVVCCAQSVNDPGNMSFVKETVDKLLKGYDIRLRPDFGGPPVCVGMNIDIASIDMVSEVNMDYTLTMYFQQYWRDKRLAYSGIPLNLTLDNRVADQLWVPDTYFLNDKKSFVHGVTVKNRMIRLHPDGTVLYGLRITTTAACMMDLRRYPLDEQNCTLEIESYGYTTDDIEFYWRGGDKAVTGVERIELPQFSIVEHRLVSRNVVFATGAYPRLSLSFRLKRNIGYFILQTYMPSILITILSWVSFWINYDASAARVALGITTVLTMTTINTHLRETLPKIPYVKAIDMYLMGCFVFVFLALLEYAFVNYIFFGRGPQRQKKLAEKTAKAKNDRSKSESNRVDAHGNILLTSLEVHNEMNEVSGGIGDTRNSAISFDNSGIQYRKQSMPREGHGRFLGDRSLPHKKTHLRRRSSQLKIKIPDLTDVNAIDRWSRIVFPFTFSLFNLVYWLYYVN
- Sequence (P47869 whole entry): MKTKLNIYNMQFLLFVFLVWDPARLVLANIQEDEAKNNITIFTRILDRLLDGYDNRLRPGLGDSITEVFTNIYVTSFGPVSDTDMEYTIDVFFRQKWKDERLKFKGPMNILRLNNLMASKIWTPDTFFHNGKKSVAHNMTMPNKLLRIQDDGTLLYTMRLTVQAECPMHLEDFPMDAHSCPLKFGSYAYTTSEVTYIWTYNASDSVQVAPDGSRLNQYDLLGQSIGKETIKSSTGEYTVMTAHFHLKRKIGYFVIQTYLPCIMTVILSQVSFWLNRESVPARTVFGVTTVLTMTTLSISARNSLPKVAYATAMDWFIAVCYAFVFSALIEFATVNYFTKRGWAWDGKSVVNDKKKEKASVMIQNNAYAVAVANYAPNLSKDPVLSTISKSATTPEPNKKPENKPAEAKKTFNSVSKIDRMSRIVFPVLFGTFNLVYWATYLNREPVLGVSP
- Measurement notes: Inhibition of [3H]-Ro- 15-1788 binding to recombinant human gamma-aminobutyric-acid A receptor alpha-2-beta-3-gamma-2
Property name: Ki

Use these answered entries as a reference point.
# Molecule, Property name, Recorded measurement
measured = [
    ("CCSc1ccc(-c2ccccn2)c2c1C(=O)CCC2", "Ki", "> 300 nM"),
    ("CCSc1ccc(-c2ncco2)c2c1C(=O)CC(C)C2 (stereo unspecified)", "Ki", "38 nM"),
    ("CCSc1ccc(-c2ccccn2)c2c1C(=O)CC(C)C2 (stereo unspecified)", "Ki", "13 nM"),
    ("CCSc1ccc(-c2nccs2)c2c1C(=O)CC(C)C2 (stereo unspecified)", "Ki", "15 nM"),
    ("CSc1ccc(-c2ccccn2)c2c1C(=O)CC(C)C2 (stereo unspecified)", "Ki", "63 nM"),
]

### Prompt What Ki value was documented for this molecule, CCSc1ccc(-c2cccc[n+]2[O-])c2c1C(=O)CC(C)C2 (stereo unspecified) ?
### Response 271 nM
